Measured values drawn from ChEMBL document CHEMBL3822400 for this set.

As shown below, each of these compounds has a reported pKi value.
- TARGET_ENTITY: Translocator protein (Rattus norvegicus, UniProt P16257)
- Sequence (P16257 whole entry, looked up): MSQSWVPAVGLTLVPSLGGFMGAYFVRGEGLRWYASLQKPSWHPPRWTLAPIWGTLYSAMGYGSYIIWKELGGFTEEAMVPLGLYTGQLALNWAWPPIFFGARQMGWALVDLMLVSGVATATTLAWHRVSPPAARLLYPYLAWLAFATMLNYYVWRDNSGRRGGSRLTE
- TEST_DETAILS: Displacement of [3H]-PK11195 from TSPO in rat C6 cell lysate after 2 hrs by liquid scintillation counting
// pKi is dimensionless: -log10 of concentration (M)

STRUCTURE_SMILES_STRING	pKi
CCc1cc(CC)n2nc(-c3ccc(OC)cc3)c(CC(=O)N3CCC3)c2n1	7.06
CCc1cc(CC)n2nc(-c3ccc(OC)cc3)c(CC(=O)N3CCCC3)c2n1	6.90

Now turn to the next compound.
According to the records, this compound CCc1cc(CC)n2nc(-c3ccc(OC)cc3)c(CC(=O)N(C)C(C)(C)C)c2n1 displays pKi of 7.02
